System: STING pathway (IRF pathway reporter, THP1-Dual cells)
test description: STING pathway activation, IRF pathway secreted luciferase (Lucia) reporter in THP1-Dual cells
Type: cell-based
condition summary: Quanti LUC luminescence, 24-hour and 48-hour plates prepared, duration not given, read-out: IRF3 (EC50 μM)
quantity: EC50

Worked examples, 2 compounds total:
Nc1ncnc2c1ncn2[C@@H]1O[C@@H]2COP(=O)(S)N[C@H]3[C@@H](O)[C@H](n4cnc5c(N)ncnc54)O[C@@H]3COP(=O)(S)N[C@H]2[C@H]1O (single isomer, unassigned) [Compound 74-0B1] | 10 to 49 µM
Nc1nc2c(ncn2[C@@H]2O[C@@H]3COP(=O)(S)N[C@H]4[C@@H](O)[C@H](n5cnc6c(=O)[nH]c(N)nc65)O[C@@H]4COP(=O)(S)N[C@H]3[C@H]2O)c(=O)[nH]1 (single isomer, unassigned) [Compound 76-0A2] | 10 to 49 µM

Request - read-out EC50 | tested on STING pathway (IRF pathway reporter, THP1-Dual cells) | compound Nc1ncnc2c1ncn2[C@@H]1O[C@@H]2COP(=O)(S)N[C@H]3[C@@H](O)[C@H](n4cnc5c(N)ncnc54)O[C@@H]3COP(=O)(S)N[C@H]2[C@H]1O (single isomer, unassigned) [Compound 74-0A1]
1 to 10 µM

---

Test system: STING pathway (IRF pathway reporter, THP1-Dual cells)
test description: STING pathway activation, IRF pathway secreted luciferase (Lucia) reporter in THP1-Dual cells
Format: cell-based
condition summary: Quanti LUC luminescence, 24-hour and 48-hour plates prepared, duration not given, read-out: IRF3 (EC50 μM)
Experimental: STING pathway activation by the compounds described herein was measured using THP1-Dual™ cells. […] THP1 Dual™ cells (obtained from Invivogen) are maintained in a cell growth medium that includes Roswell Park Memorial Institute medium (RPMI), 10% fetal calf serum (FCS), 100 U/ml Pen/Strep, 2 mM L-glut, 10 mM Hepes, and 1 mM sodium pyruvate. […] Cells were then counted and evaluated for viability by trypan blue exclusion assay. […]
quantity: EC50

Record request: EC50 value, item Nc1nc2c(ncn2[C@@H]2O[C@@H]3COP(=O)(S)N[C@H]4[C@@H](O)[C@H](n5cnc6c(=O)[nH]c(N)nc65)O[C@@H]4COP(=O)(S)N[C@H]3[C@H]2O)c(=O)[nH]1 (single isomer, unassigned) [Compound 76-0A3]
1 to 10 µM

Look up EC50: Nc1nc2c(ncn2[C@@H]2O[C@@H]3COP(=O)(S)N[C@H]4[C@@H](O)[C@H](n5cnc6c(=O)[nH]c(N)nc65)O[C@@H]4COP(=O)(S)N[C@H]3[C@H]2O)c(=O)[nH]1 (single isomer, unassigned) [Compound 76-0B1]
10 to 49 µM

Give its EC50 value. Item: Nc1ncnc2c1ncn2[C@@H]1O[C@@H]2COP(=O)(S)N[C@H]3[C@@H](O)[C@H](n4cnc5c(N)ncnc54)O[C@@H]3COP(=O)(S)N[C@H]2[C@H]1O (single isomer, unassigned) [Compound 74-0A2]
1 to 10 µM

Origin of values: patent US10961270B2
